Reference source for all entries: the supplement of paper PMC8728848

tested target: Fuc(a1-2)Gal6S(b1-3)GlcNAc6S
test details: glycan array binding signal (z-score within array); higher = stronger binding
assay conditions: glycan notation: IUPAC condensed, linker removed
Many of the other results were omitted from the sample, so the strongest signals are more common in it than they were.
Here the recorded glycan array binding signal (z-score) is given for each entry.
The answer should be a number; do not append a unit.

Solved cases (6 shown):
| binder | glycan array binding signal (z-score) |
| --- | --- |
| Tamarinin (protein) CDDSARAGNIVVYWGQGGSDNSEGSLKEACKSGHYNMIVLQQLIVYDDGRDPDLNLGAHCSDCTKLEEQIKYCQNKDIKILLQIGQVVPTQEDVKDVTKNLSEYLLKNFFSGKSGPLGEVYLNGIDIASVPEGNNLKFDELVEALNDSSTERRIYLSASPLCVYPDYYLNKAIQTEKLDFLFVQFFYQNPCIYTEGNPENLFEAMKTWTKNVPESMIFMALPATPNLDGYIPPRVLNKEILPAVSEASNFAGVMIFDRYFDRFRKYSSKIK | 4.89 |
| VLRB.aGPA.23-GCN4-biotin (Petromyzon marinus) (protein) ACPSQCSCSGTEVNCAGKSLASVPAGIPTTTRVLYLNSNQITKLEPGVFDRLANLRELHLWGNQLVSLPPGVFDNLANLEKLWLNSNQLTSLPAGLFDRLVNLEHLGLCCMKLTELPSGAFDKLTRLKQLGLDQNQLKSIPDGAFARLPSLTHVWLHTNPWDCQCTDILYLSGWVAQHSSIVGEGWPWRHSPDSAKCSGTNTPVRAVTEASTSPSKCP | -0.055 |
| MUB70 (Lactobacillus reuteri) (protein) CVHVQYIDGETDQMLRQDDLDGYTDETIPYSTAEGIKKFEGDGYELFKDNFPAGEKFDNDDTNDQFYTVIF | 2.39 |
| Cohesin-hDECTIN-1 (Homo sapiens) (protein) LDITSHHHHHHDDLDAVRIKVDTVNAKPGDTVRIPVRFSGIPSKGIANCDFVYSYDPNVLEIIEIEPGDIIVDPNPDKSFDTAVYPDRKIIVFLFAEDSGTGAYAITKDGVFATIVAKVKEGAPNGLSVIKFVEVGGFANNDLVEQKTQFFDGGVNVGDTTEPATPTTPVTTPTTTDDLDAASSSPCPPNWIIYEKSCYLFSMSLNSWDGSKRQCWQLGSNLLKIDSSNELGFIVKQVSSQPDNSFWIGLSRPQTEVPWLWEDGSTFSSNLFQIRTTATQENPSPNCVWIHVSVIYDQLCSVPSYSICEKKFM | 0.18 |
| RVL (Remusatia vivipara), B5LYJ9 (protein) MAKLLLFLLPAILGLLVPRSAVALGTNYLLSGQTLDTEGHLKNGDFDLVMQDDCNLVLYNGNWQSNTANNGRDCKLTLTDYGELVIKNGDGSTVWKSGAQSVKGNYAAVVHPDGRLVVLGPSVFKIDPWVRGLNSLRFRNIPFTNNLLFSGQVLYGDGRLTAKNHQLVMQGDCNLVLYGGKYGWQSNTHGNGEHCFLRLNHKGELIIKDDDFKTIWSSRSSSKQGEYVLILQDDGFGVIYGPAIFETSSKRSIAAS | 0.483 |
| CML1 (Coprinopsis cinerea) (protein) MAIFHTGSELFIITRGPGKLTLLTWGGLNNLRSVIGAIPTENTGVTKWAVSFSHNYTRFSFIWEGQGEACYQIGNGLTRSPVGRSWSSSSTIHWGSSTVITEDVTSVVPGAVNRDKVTTAYALPDNL | 3.67 |

GET /value?item= Gal 10 (Homo sapiens), Q05315 (protein) MSLLPVPYTEAASLSTGSTVTIKGRPLVCFLNEPYLQVDFHTEMKEESDIVFHFQVCFGRRVVMNSREYGAWKQQVESKNMPFQDGQEFELSISVLPDKYQVMVNGQSSYTFDHRIKPEAVKMVQVWRDISLTKFNVSYLKR &field=glycan array binding signal (z-score) returns 0.571

GET /value?item= CrataBL (Crataeva tapia), C0HJA4 (protein) AILTGVPYYILPSTSRAGFSPDNLRKNTSQLSCPLDLITQLRFPRRIGVPVIFTPQNSSLKVVPLSHNLNIHTCSDLWFCPESKIWTVKSSLTHGGSVVTTGGTFRSLGSWFRIERHGDSYKLVHCPRGSTPCRDVGIETVGGGGRRYLAPRDRPLAVRFTRASG &field=glycan array binding signal (z-score) returns 5.81

GET /value?item= pTFF2 (Sus scrofa), P01359 (protein) KPAACRCSRQDPKNRVNCGFPGITSDQCFTSGCCFDSQVPGVPWCFKPLPAQESEECVMEVSARKNCGYPGISPEDCAARNCCFSDTIPEVPWCFFPMSVEACHY &field=glycan array binding signal (z-score) returns -0.991

GET /value?item= KILRGVCKKIMRTFLRRISKDILTGKK [NK2 (Sus scrofa)] &field=glycan array binding signal (z-score) returns 2.03
